# human urinary angiotensin converting enzyme (Homo sapiens): IC50 values follow
Give bare numbers, in nM.

input: Look at this compound and give its reported IC50. CC[C@H](C)[C@H](NC(=O)[C@H](CCC(N)=O)NC(=O)[C@@H]1C=CCN1C(=O)[C@H](CCCNC(=N)N)NC(=O)[C@@H]1CCCN1C(=O)[C@H](Cc1c[nH]c2ccccc12)NC(=O)[C@@H]1CCC(=O)N1)C(=O)N1CCC[C@H]1C(=O)N1CCC[C@H]1C(=O)O
output: 0.9

With those in mind, consider the next compound.
input: Look at this compound and give its reported IC50. CC[C@H](C)[C@H](NC(=O)[C@H](CCC(N)=O)NC(=O)[C@@H]1CCCN1C(=O)[C@H](CCCNC(=N)N)NC(=O)[C@@H]1CCCN1C(=O)[C@H](Cc1c[nH]c2ccccc12)NC(=O)[C@@H]1CCC(=O)N1)C(=O)N1CCC[C@H]1C(=O)N1CCC[C@H]1C(=O)O
output: 28

----------
# targetUnderTest: human urinary angiotensin converting enzyme (Homo sapiens, UniProt P12821)
# Sequence (P12821 30-1306): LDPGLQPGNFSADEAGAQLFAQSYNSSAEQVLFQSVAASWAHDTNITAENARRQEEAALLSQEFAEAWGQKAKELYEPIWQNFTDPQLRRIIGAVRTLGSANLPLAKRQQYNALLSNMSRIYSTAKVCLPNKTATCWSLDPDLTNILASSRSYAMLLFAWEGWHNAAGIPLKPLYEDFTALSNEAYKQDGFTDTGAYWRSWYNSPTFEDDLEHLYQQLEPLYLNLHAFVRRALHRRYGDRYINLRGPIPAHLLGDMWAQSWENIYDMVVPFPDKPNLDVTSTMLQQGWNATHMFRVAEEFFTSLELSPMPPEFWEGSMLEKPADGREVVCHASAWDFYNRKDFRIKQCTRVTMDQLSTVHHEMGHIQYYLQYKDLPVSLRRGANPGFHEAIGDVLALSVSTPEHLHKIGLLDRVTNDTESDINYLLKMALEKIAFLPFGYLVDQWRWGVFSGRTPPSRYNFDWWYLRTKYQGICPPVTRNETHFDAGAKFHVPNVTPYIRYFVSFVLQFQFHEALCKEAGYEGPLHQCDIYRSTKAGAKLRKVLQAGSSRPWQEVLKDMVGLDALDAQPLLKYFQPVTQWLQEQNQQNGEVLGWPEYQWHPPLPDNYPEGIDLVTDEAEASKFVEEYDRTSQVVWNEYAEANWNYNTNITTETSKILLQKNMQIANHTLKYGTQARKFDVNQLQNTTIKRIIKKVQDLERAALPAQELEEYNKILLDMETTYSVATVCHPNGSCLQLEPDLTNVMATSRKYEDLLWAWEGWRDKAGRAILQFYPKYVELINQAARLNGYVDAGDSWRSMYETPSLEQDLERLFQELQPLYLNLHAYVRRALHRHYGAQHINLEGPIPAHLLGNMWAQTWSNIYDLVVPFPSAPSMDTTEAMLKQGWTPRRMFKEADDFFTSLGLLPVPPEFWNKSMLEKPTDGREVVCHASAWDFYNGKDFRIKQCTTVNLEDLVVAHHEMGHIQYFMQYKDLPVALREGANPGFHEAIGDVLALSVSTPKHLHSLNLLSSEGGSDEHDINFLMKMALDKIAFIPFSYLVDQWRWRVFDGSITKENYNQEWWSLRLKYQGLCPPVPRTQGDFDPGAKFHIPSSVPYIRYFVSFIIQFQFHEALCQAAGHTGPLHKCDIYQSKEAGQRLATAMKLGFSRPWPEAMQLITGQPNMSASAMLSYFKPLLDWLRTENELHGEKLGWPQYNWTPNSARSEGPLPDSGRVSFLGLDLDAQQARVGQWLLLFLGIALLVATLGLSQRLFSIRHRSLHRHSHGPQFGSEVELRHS
observable: pIC50
Give bare numbers, as −log10 of the molar value.

# count of solved cases: 2
input: Look at this compound and give its reported pIC50. CC[C@H](C)[C@H](NC(=O)[C@H](CCC(N)=O)NC(=O)[C@@H]1CCCN1C(=O)[C@H](CCCNC(=N)N)NC(=O)[C@@H]1CCCN1C(=O)[C@H](Cc1c[nH]c2ccccc12)NC(=O)[C@@H]1CCC(=O)N1)C(=O)N1CC=C[C@H]1C(=O)N1CCC[C@H]1C(=O)O
output: 7.22

input: Follow-up item: CC[C@H](C)[C@H](NC(=O)[C@H](CCC(N)=O)NC(=O)[C@@H]1CCCN1C(=O)[C@H](CCCNC(=N)N)NC(=O)[C@@H]1CCCN1C(=O)[C@H](Cc1c[nH]c2ccccc12)NC(=O)[C@@H]1CCC(=O)N1)C(=O)N1CCC[C@H]1C(=O)N1CC=C[C@H]1C(=O)O
output: 9.82

With those in mind, consider the next compound.
input: Look at this compound and give its reported pIC50. CC[C@H](C)[C@H](NC(=O)[C@H](CCC(N)=O)NC(=O)[C@@H]1CCCN1C(=O)[C@H](CCCNC(=N)N)NC(=O)[C@@H]1C=CCN1C(=O)[C@H](Cc1c[nH]c2ccccc12)NC(=O)[C@@H]1CCC(=O)N1)C(=O)N1CCC[C@H]1C(=O)N1CCC[C@H]1C(=O)O
output: 9.05
